Taken from the Immune Epitope Database (IEDB).

- study.system: HLA-A*11:01
- assay.name: IEDB peptide-MHC binding, purified MHC/competitive/fluorescence; filed as Kd, often an IC50 or EC50 that approximates it; bounds were set here for any values at or beyond the usual limits of such assays
- assay.context: source organism: Giardia lamblia ATCC 50803
readout.label: Kd (nM)

sequence.string: MTYLDGHPV
data.value: 138

====

- study.system: HLA-B*35:01
- assay.name: IEDB peptide-MHC binding, purified MHC/direct/fluorescence; filed as Kd, often an IC50 or EC50 that approximates it; bounds were set here for any values at or beyond the usual limits of such assays
- assay.context: source organism: Giardia lamblia ATCC 50803
readout.label: Kd (nM)

sequence.string: YQYGDNLIL
readout.label: Kd
data.value: 410

====

- study.system: HLA-A*30:01
- assay.name: IEDB peptide-MHC binding, purified MHC/competitive/radioactivity; filed as Kd, often an IC50 or EC50 that approximates it; bounds were set here for any values at or beyond the usual limits of such assays
- assay.context: source organism: Dengue virus 4 Philippines/H241/1956
readout.label: Kd (µM)

sequence.string: CLRRRVTRK
value.unit: µM
data.value: 3.14

====

- study.system: HLA-A*02:01
- assay.name: IEDB peptide-MHC binding, purified MHC/direct/fluorescence; filed as Kd, often an IC50 or EC50 that approximates it; bounds were set here for any values at or beyond the usual limits of such assays
- assay.context: source organism: Giardia lamblia ATCC 50803
pKd: −log10 of the molar value.
Reported pKd values are given for each entry in this list.
readout.label: pKd

sequence.string: VYAYPSGEK
readout.label: pKd
data.value: ≤ 4.70
//
sequence.string: YQYGDNLIL
readout.label: pKd
data.value: 7.66
//
sequence.string: YTDDYPMYK
readout.label: pKd
data.value: ≤ 4.70
//
sequence.string: MIYELCTFR
readout.label: pKd
data.value: ≤ 4.70

====

- study.system: HLA-A*02:01
- assay.name: IEDB peptide-MHC binding, purified MHC/competitive/fluorescence; bounds were set here for any values at or beyond the usual limits of such assays
- assay.context: source organism: West Nile virus NY-99

sequence.string: RLDDDGNFQL
value.unit: nM
IC50: 847

====

- study.system: HLA-B*58:01
- assay.name: IEDB peptide-MHC binding, purified MHC/direct/fluorescence; filed as Kd, often an IC50 or EC50 that approximates it; bounds were set here for any values at or beyond the usual limits of such assays
- assay.context: source organism: Rickettsia conorii
pKd: −log10 of the molar value.

sequence.string: KLNENIIRF
pKd: 7.16

====

- study.system: HLA-B*38:01
- assay.name: IEDB peptide-MHC binding, purified MHC/direct/fluorescence; filed as Kd, often an IC50 or EC50 that approximates it; bounds were set here for any values at or beyond the usual limits of such assays
- assay.context: source organism: Mycobacterium tuberculosis str. Haarlem
pKd: −log10 of the molar value.

sequence.string: VPRENATAF
pKd: ≤ 4.70

====

- study.system: HLA-B*07:02
- assay.name: IEDB peptide-MHC binding, purified MHC/competitive/fluorescence; bounds were set here for any values at or beyond the usual limits of such assays
- assay.context: source organism: Vaccinia virus Copenhagen

sequence.string: KITFALKKL
IC50: 61.2 µM

====

- study.system: HLA-A*68:23
- assay.name: IEDB peptide-MHC binding, purified MHC/competitive/fluorescence; filed as Kd, often an IC50 or EC50 that approximates it; bounds were set here for any values at or beyond the usual limits of such assays
- assay.context: source organism: Giardia lamblia ATCC 50803
pKd: −log10 of the molar value.

sequence.string: MTYLDGHPV
pKd: ≥ 10.00

====

- study.system: HLA-A*02:12
- assay.name: IEDB peptide-MHC binding, purified MHC/competitive/fluorescence; filed as Kd, often an IC50 or EC50 that approximates it; bounds were set here for any values at or beyond the usual limits of such assays
- assay.context: source organism: Homo sapiens

sequence.string: VVPYEPPEV
value.unit: µM
Kd: 0.161

====

- study.system: HLA-A*30:01
- assay.name: IEDB peptide-MHC binding, purified MHC/competitive/fluorescence; filed as Kd, often an IC50 or EC50 that approximates it; bounds were set here for any values at or beyond the usual limits of such assays
- assay.context: source organism: Corynebacterium glutamicum ATCC 13032
pKd: −log10 of the molar value.
readout.label: pKd

sequence.string: HLPELIWRS
readout.label: pKd
data.value: ≤ 4.70

====

- study.system: HLA-A*31:01
- assay.name: IEDB peptide-MHC binding, purified MHC/competitive/fluorescence; filed as Kd, often an IC50 or EC50 that approximates it; bounds were set here for any values at or beyond the usual limits of such assays
- assay.context: source organism: Zaire ebolavirus
pKd: −log10 of the molar value.
readout.label: pKd

sequence.string: HSGFIYFGK
study.system: HLA-A*31:01
data.value: 6.10

====

- study.system: HLA-A*30:01
- assay.name: IEDB peptide-MHC binding, purified MHC/direct/fluorescence; filed as Kd, often an IC50 or EC50 that approximates it; bounds were set here for any values at or beyond the usual limits of such assays
- assay.context: source organism: Escherichia coli O157:H7 str. EC869

sequence.string: ESMMGSTAM
Kd: ≥ 20 µM

====

- study.system: HLA-A*11:01
- assay.name: IEDB peptide-MHC binding, purified MHC/competitive/radioactivity; filed as Kd, often an IC50 or EC50 that approximates it; bounds were set here for any values at or beyond the usual limits of such assays
- assay.context: source organism: Mammarenavirus lassaense

sequence.string: TLGSFTWFPH
value.unit: µM
Kd: 4.99

====

- study.system: HLA-A*30:02
- assay.name: IEDB peptide-MHC binding, purified MHC/competitive/fluorescence; filed as Kd, often an IC50 or EC50 that approximates it; bounds were set here for any values at or beyond the usual limits of such assays
- assay.context: source organism: Yersinia pestis CO92

sequence.string: QQRPDLILV
study.system: HLA-A*30:02
Kd: ≥ 20 µM

====

- study.system: HLA-A*02:06
- assay.name: IEDB peptide-MHC binding, purified MHC/direct/fluorescence; filed as Kd, often an IC50 or EC50 that approximates it; bounds were set here for any values at or beyond the usual limits of such assays
- assay.context: source organism: Yersinia pestis CA88-4125
readout.label: Kd (nM)

sequence.string: QQRPDLILV
readout.label: Kd
data.value: 170

====

- study.system: HLA-A*24:02
- assay.name: IEDB peptide-MHC binding, purified MHC/competitive/radioactivity; filed as Kd, often an IC50 or EC50 that approximates it; bounds were set here for any values at or beyond the usual limits of such assays
- assay.context: source organism: Mammarenavirus juninense
readout.label: Kd

sequence.string: SGKDTPGGY
study.system: HLA-A*24:02
readout.label: Kd
data.value: ≥ 77.5 µM

====

- study.system: HLA-B*58:01
- assay.name: IEDB peptide-MHC binding, purified MHC/competitive/fluorescence; filed as Kd, often an IC50 or EC50 that approximates it; bounds were set here for any values at or beyond the usual limits of such assays
- assay.context: source organism: Orthohantavirus tulaense

sequence.string: FGAAVSLLF
value.unit: nM
Kd: 1.3

====

- study.system: HLA-A*80:01
- assay.name: IEDB peptide-MHC binding, purified MHC/direct/fluorescence; filed as Kd, often an IC50 or EC50 that approximates it; bounds were set here for any values at or beyond the usual limits of such assays
- assay.context: source organism: Yellow fever virus
pKd: −log10 of the molar value.

sequence.string: RVERIKSEY
pKd: 7.47

====

- study.system: HLA-B*58:01
- assay.name: IEDB peptide-MHC binding, purified MHC/direct/fluorescence; filed as Kd, often an IC50 or EC50 that approximates it; bounds were set here for any values at or beyond the usual limits of such assays
- assay.context: source organism: Orthohantavirus andesense
pKd: −log10 of the molar value.
Below is a list of entries, each paired with its recorded pKd value.
readout.label: pKd

sequence.string: FSLPSSSSY
study.system: HLA-B*58:01
readout.label: pKd
qualifier.sign: =
data.value: 7.66

sequence.string: SIKFKRKLM
study.system: HLA-B*58:01
readout.label: pKd
qualifier.sign: ≤
data.value: 4.70

====

- study.system: HLA-A*01:01
- assay.name: IEDB peptide-MHC binding, purified MHC/competitive/fluorescence; filed as Kd, often an IC50 or EC50 that approximates it; bounds were set here for any values at or beyond the usual limits of such assays
- assay.context: source organism: Influenza A virus (A/Swine/Indiana/9K035/99 (H1N2))
pKd: −log10 of the molar value.
readout.label: pKd

sequence.string: STSADQQSLY
data.value: 7.73

====

Kd values, listed per item
- study.system: HLA-A*24:03
- assay.name: IEDB peptide-MHC binding, purified MHC/direct/fluorescence; filed as Kd, often an IC50 or EC50 that approximates it; bounds were set here for any values at or beyond the usual limits of such assays
- assay.context: source organism: Choclo virus

sequence.string: HTVGLGQGY
study.system: HLA-A*24:03
Kd: ≥ 20 µM
--
sequence.string: FSLPSSSSY
study.system: HLA-A*24:03
Kd: ≥ 20 µM
